# test target: Torsin-1A-interacting protein 1 (Homo sapiens)
# protocol: LAP1 binders from COS7 cell lysate, primary screen, small-molecule microarray, 635/667 nm fluorescence (AID 1116)
# settings: COS7-hLAP1 lysate binding, 635 nm fluorescence, higher = more signal
measured parameter: composite z-score
Could you keep your reply to the number by itself?

[Q] Give reported composite z-score value for "C=CCOC(=O)[C@@H]1[C@H]2C(=O)O[C@H](c3ccccc3)[C@H](c3ccccc3)N2[C@H](c2ccc(OCCOC(=O)[C@@H]3C[C@@H]4C(=O)N[C@@H](Cc5ccccc5)C(=O)N4[C@@H]3c3ccc(O)cc3)cc2)[C@@]12C(=O)Nc1ccc(I)cc12"
[A] -0.289

[Q] State, in one line, measured composite z-score of "COc1ccc([Si](C)(C)[C@H]2[C@H](CC(=O)N3CCC[C@H]3CO)O[C@@]3(C(=O)N(Cc4cccc(N5C(=O)c6cccc7cccc5c67)c4)c4ccccc43)[C@@H]2C)cc1"
[A] 0.582

[Q] Output measured composite z-score for this item: C=CCC(OC(C)=O)[C@@H]1[C@@H](N(Cc2ccc(-c3cccc(C(F)(F)F)c3)o2)C(=O)c2ccc(-c3ccccc3)cc2)c2cc(OCCCO)ccc2N1C(=O)c1ccc(-c2ccccc2)cc1 (some centres undefined)
[A] -0.228

[Q] Give a short answer stating reported composite z-score for CCOC1=C2C(CN(S(=O)(=O)c3ccc(C)cc3)C2c2ccc(C)cc2)C2C(=O)N(c3ccccc3)C(=O)C2C1 (centres undefined) .
[A] 0.326
